So I've got a bunch of compounds here, and I need their relative viability values.
Tested on: 621-102 (TSC2-deficient);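 further: immortalized renal angiomyolipoma cells stably carrying empty vector or TSC2, dosed in 384-well plates in DMEM, viability normalized to vehicle-treated wells within each plate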
assayNotes: relative viability vs DMSO; higher = less cytotoxic
reportedConditions: 0.01 µM; serum: 10% FBS; 72 h
Counter-ions that a name gives are not always drawn.
Respond numerically; units are % and should not be typed.

Suppose we examine the compound Cc1nc(=O)c2cc(CN(C)c3ccc(C(=O)N[C@@H](CCC(=O)O)C(=O)O)s3)ccc2[nH]1 ; what relative viability value has been reported?
107

Suppose we examine the compound Clc1ccc(Nc2nnc(Cc3ccncc3)c3ccccc23)cc1 ; what relative viability value has been reported?
115

Suppose we examine the compound COc1ccccc1N1CCN(CC(O)COc2cccc3ccccc23)CC1 (centres undefined) [Naftopidil Dihydrochloride] ; what relative viability value has been reported?
108

Suppose we examine the compound CC/C(=C(\c1ccccc1)c1ccc(OCCN(C)C)cc1)c1ccccc1 [Tamoxifen Citrate] ; what relative viability value has been reported?
111

Suppose we examine the compound COc1cc2c(Nc3ccc(NC(=O)c4ccccc4)cc3)ncnc2cc1OCCCN1CCOCC1 ; what relative viability value has been reported?
108

Suppose we examine the compound Cc1c(NC(=O)OC[C@@H]2COCCN2)cn2ncnc(Nc3ccc4c(cnn4Cc4cccc(F)c4)c3)c12 ; what relative viability value has been reported?
97.6

Suppose we examine the compound CCOC(=O)C1=C(COCCN)NC(C)=C(C(=O)OC)C1c1ccccc1Cl (centres undefined) [Amlodipine besylate] ; what relative viability value has been reported?
76.1

Suppose we examine the compound CCOC(=O)C1=C(C)NC(C)=C(C(=O)OC)C1c1cccc(Cl)c1Cl (centres undefined) ; what relative viability value has been reported?
101

Suppose we examine the compound COc1ccc([C@H]2CNC(=O)C2)cc1OC1CCCC1 [S-(+)-Rolipram] ; what relative viability value has been reported?
102

Suppose we examine the compound COC(=O)Nc1nc2cc(Sc3ccccc3)ccc2[nH]1 ; what relative viability value has been reported?
98.4

Suppose we examine the compound CC(=O)SCC(Cc1ccccc1)C(=O)NCC(=O)OCc1ccccc1 (centres undefined) ; what relative viability value has been reported?
122

Suppose we examine the compound Cn1cc(-c2ccc3nnc(C(F)(F)c4ccc5ncccc5c4)n3n2)cn1 ; what relative viability value has been reported?
99.2

Suppose we examine the compound COc1cc2nc(N3CCN(C(=O)C4COc5ccccc5O4)CC3)nc(N)c2cc1OC (centres undefined) [Doxazosin mesylate] ; what relative viability value has been reported?
102

Suppose we examine the compound CNCc1ccc(-c2[nH]c3cc(F)cc4c3c2CCNC4=O)cc1 ; what relative viability value has been reported?
128

Suppose we examine the compound O=S(=O)(c1cccc2cnccc12)N1CCCNCC1 [Fasudil HCl] ; what relative viability value has been reported?
100

Suppose we examine the compound COc1cc2nccc(Oc3ccc(NC(=O)C4(C(=O)Nc5ccc(F)cc5)CC4)cc3)c2cc1OC ; what relative viability value has been reported?
98.8

Suppose we examine the compound Cn1c(CNc2ccc(C(=N)N)cc2)nc2cc(C(=O)N(CCC(=O)O)c3ccccn3)ccc21 ; what relative viability value has been reported?
90.2

Suppose we examine the compound Nc1nc(=O)[nH]cc1F ; what relative viability value has been reported?
104

Suppose we examine the compound COc1ccc(-c2cc3c(C)nc(N)nc3n([C@H]3CC[C@H](OCCO)CC3)c2=O)cn1 ; what relative viability value has been reported?
91.2
